Taken from patent US20250129078A1.

EGFR WT (Homo sapiens (Human), UniProt P00533) measurements of pIC50, listed per entry.
Sequence (P00533 25-1210): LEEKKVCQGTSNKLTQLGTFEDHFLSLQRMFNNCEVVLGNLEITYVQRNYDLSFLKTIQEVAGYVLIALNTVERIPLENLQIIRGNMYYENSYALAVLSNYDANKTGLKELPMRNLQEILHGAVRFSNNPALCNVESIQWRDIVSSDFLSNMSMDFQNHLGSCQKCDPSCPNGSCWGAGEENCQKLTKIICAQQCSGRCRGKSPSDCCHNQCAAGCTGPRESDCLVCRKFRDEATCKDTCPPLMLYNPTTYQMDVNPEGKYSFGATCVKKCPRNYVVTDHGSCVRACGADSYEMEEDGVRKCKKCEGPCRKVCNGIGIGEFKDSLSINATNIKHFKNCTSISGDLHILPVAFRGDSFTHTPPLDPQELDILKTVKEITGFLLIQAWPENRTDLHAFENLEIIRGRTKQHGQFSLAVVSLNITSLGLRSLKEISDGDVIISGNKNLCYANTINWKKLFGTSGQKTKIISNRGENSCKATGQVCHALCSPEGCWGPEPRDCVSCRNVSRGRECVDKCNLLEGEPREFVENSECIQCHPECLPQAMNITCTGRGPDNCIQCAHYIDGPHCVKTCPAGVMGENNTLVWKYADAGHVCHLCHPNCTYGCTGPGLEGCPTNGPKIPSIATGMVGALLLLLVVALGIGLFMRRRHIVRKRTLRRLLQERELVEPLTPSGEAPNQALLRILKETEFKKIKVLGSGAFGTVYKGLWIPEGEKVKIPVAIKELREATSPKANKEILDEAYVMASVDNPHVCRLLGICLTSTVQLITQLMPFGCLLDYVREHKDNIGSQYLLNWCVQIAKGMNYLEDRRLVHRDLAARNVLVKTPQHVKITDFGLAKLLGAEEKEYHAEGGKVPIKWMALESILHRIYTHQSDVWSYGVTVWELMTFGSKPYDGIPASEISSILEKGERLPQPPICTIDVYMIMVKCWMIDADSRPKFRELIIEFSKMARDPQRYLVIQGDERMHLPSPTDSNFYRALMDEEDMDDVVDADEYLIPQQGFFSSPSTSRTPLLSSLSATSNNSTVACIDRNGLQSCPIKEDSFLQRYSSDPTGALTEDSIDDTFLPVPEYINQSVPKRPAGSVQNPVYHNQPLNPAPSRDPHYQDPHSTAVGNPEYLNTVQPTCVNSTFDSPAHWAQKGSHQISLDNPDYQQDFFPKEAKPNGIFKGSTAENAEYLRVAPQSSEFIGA
pIC50: −log10 of the molar value.

C=CC(=O)N1CCN(c2ccc3ncnc(Nc4ccc(Oc5ccc6c(c5)nnn6C)c(C)c4)c3n2)C[C@@H]1CC#N [Compound 83] ... > 7.30
C=CC(=O)N[C@@H]1C[C@@H](C)CN(c2ncc3ncnc(Nc4ccc(Oc5ccc6c(c5)nnn6C)c(C)c4F)c3n2)C1 (single isomer, unassigned) [Compound 201] ... ≤ 6.00
C=CC(=O)N1CC2C(C1)N2c1ncc2ncnc(Nc3ccc(Oc4ccc5c(c4)nnn5C)c(C)c3)c2n1 (stereo not drawn) [Compound 242] ... 6.30 to 7.00
C=CC(=O)N1CC(N(C)c2ncc3ncnc(Nc4ccc(Oc5ccc6c(c5)nnn6C)c(C)c4F)c3n2)C1 [Compound 69] ... > 7.30
C=CC(=O)N1CCN(c2ccc3ncnc(Nc4ccc(Oc5ccc6c(c5)nnn6C)c(C)c4F)c3n2)CC1(C)C [Compound 275] ... 6.30 to 7.00

For reference, reported pIC50 for C=CC(=O)N1CCN(c2ccc3ncnc(Nc4cc(C)c(Oc5ccc6c(c5)ncn6C(F)F)cc4OC)c3n2)C[C@H]1C [Compound 307] stands at 6.30 to 7.00

---

target: ErbB2 V777L (Homo sapiens (Human), UniProt P04626, V777L); test: ErbB enzyme assay (CisBio HTRF-KinEASE-TK), ErbB2 V777L; format: biochemical
Sequence (P04626 23-1255 V777L): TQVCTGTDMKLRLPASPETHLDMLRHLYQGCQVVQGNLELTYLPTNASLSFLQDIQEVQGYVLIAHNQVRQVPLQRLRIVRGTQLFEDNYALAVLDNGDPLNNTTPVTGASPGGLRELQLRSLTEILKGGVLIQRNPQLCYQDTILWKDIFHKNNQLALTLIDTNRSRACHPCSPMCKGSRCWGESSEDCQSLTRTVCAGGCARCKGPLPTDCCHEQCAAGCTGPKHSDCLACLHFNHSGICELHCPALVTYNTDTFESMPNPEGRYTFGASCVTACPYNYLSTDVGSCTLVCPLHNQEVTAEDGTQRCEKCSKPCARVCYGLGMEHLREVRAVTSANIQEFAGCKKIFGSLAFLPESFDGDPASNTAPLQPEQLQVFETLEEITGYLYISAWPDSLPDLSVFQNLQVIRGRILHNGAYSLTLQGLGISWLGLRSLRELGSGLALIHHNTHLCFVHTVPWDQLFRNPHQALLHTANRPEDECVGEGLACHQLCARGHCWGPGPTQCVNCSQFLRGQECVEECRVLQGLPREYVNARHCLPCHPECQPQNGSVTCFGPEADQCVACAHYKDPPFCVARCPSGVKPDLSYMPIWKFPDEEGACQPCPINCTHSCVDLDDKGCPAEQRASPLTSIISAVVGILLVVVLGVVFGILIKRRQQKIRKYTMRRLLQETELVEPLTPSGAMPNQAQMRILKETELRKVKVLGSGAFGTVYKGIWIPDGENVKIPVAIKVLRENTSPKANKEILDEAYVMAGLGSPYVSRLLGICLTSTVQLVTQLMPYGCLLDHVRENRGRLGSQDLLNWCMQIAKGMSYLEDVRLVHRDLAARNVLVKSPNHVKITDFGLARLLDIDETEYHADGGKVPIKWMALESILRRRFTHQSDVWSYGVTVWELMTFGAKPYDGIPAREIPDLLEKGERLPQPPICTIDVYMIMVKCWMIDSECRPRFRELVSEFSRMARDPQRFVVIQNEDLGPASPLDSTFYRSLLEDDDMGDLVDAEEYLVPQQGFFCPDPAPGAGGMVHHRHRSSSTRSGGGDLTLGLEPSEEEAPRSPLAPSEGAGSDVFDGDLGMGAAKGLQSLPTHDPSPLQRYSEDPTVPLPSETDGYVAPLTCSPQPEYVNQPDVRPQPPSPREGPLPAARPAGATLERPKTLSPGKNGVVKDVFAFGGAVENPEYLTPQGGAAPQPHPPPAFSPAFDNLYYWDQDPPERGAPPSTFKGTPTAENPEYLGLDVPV
IC50 values for the compounds below.

C=CC(=O)NC1CC=C(c2ccc3ncnc(Nc4ccc(Oc5ccc6c(c5)nnn6C)c(C)c4)c3n2)CC1 (stereo not shown) [Compound 412] ... 100 to 500 nM

IC50 recorded for this compound, C=CC(=O)N[C@@H]1CCCN(c2ccc3ncnc(Nc4ccc(Oc5ccc6c(c5)nnn6C)c(C)c4F)c3n2)[C@@H]1C [Compound 268] , is 50 to 100 nM

Per the record, C=CC(=O)N(C)[C@H]1C[C@@H](Oc2ncc3ncnc(Nc4ccc(Oc5cc(F)c6c(c5)ncn6C)c(C)c4)c3n2)C1 [Compound 387] has IC50 of 50 to 100 nM

For record C=CC(=O)N1CC2(CC(N(C)c3ncc4ncnc(Nc5ccc(Oc6ccc7c(c6)nnn7C)c(C)c5)c4n3)C2)C1 [Compound 124] the listed IC50 is 50 to 100 nM

---

# pIC50 measurements, system: UniProtKB P00533
pIC50: −log10 of the molar value.

Example entries begin here.
C=CC(=O)N1CCN(c2ccc3ncnc(Nc4ccc(Oc5cc6nnn(C)c6c(F)c5C)c(C)c4F)c3n2)C[C@H]1C ... 6.30 to 7.00
C=CC(=O)N[C@@H]1CN(c2ccc3ncnc(Nc4ccc(Oc5ccc6c(c5)nnn6C)c(C)c4F)c3n2)CC[C@H]1C (single isomer, unassigned) ... 6.30 to 7.00
C=CC(=O)N1CCN(c2ccc3ncnc(Nc4ccc(Oc5ccc6c(c5)ncn6C(F)F)c(C)c4)c3n2)C[C@H]1C ... 7.00 to 7.30
C=C(F)C(=O)N1CCN(c2ccc3ncnc(Nc4ccc(Oc5ccc6c(c5)nnn6C)c(C)c4)c3n2)C[C@@H]1CC#N ... 6.00 to 6.30
C=CC(=O)N1CC[C@H](N(C)c2ncc3ncnc(Nc4ccc(Oc5ccc6c(c5)nnn6C)c(C)c4)c3n2)C1 ... > 7.30

Readout pIC50 for C=CC(=O)N1[C@@H](C)CN(c2ncc3ncnc(Nc4ccc(Oc5ccc6c(c5)nnn6C)c(C)c4)c3n2)C[C@@H]1C , test system UniProtKB P00533, was ≤ 6.00

Per the reported UniProtKB P00533 data, C=CC(=O)N[C@H]1CN(c2ccc3ncnc(Nc4ccc(Oc5ccc6c(c5)nnn6C)c(C)c4F)c3n2)CC[C@@H]1F has pIC50 of 6.30 to 7.00

// returns pIC50 for C=CC(=O)N1CCN(c2ccc3ncnc(Nc4ccc(Oc5cc6nnn(C)c6c(F)c5C)c(C)c4)c3n2)C[C@H]1C with UniProtKB P00533; value = ≤ 6.00

Fill in: UniProtKB P00533 pIC50 for C=CC(=O)N1CCN(c2ccc3ncnc(Nc4cc(C)c(Oc5ccc6c(c5)nnn6C)cc4OC(F)(F)F)c3n2)CC1(C)C = 6.30 to 7.00

Readout pIC50 for C=CC(=O)N1CC2CCC(C1)N2c1ccc2ncnc(Nc3ccc(Oc4ccc5c(c4)nnn5C)c(C)c3)c2n1 , test system UniProtKB P00533, was > 7.30
